- TARGET_DESC: constitutively active mutant human 5HT2C receptor AP-1 (Homo sapiens, UniProt P28335, S310K)
- Construct: expressed in transfected cells; host or cells: COS7 cells, pCMV vector, transient
- Sequence (P28335 33-458 S310K): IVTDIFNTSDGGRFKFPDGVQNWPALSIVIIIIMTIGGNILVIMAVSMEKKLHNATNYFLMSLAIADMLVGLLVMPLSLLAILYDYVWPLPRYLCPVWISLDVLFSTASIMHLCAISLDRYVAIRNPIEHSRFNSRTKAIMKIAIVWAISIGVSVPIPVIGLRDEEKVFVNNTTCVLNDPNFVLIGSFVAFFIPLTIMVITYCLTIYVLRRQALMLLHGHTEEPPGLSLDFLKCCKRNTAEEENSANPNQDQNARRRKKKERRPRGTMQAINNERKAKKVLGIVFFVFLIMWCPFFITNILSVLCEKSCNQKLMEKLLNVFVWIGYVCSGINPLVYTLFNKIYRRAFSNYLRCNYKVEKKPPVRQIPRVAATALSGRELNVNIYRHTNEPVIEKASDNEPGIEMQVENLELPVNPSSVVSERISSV
- PROTOCOL_DESCRIPTION: [35S]GTPγS binding assay with membranes of COS7 cells expressing AP-1
- Type: biochemical
PARAMETER: IC50 (nM)
Reply with just the number (in nM).

// query Identify measured IC50 corresponding to CC[C@@H](CO)NC(=O)[C@@H]1C=C2c3cccc4c3c(cn4C)C[C@H]2N(C)C1 [Methysergide]
// result 6.1

====

- TARGET_DESC: wild type human 5HT2A receptor (Homo sapiens)
- Construct: expressed in transfected cells; host or cells: COS-7 cells, pCMV vector
- Sequence (P28223 whole entry T25N/H452Y): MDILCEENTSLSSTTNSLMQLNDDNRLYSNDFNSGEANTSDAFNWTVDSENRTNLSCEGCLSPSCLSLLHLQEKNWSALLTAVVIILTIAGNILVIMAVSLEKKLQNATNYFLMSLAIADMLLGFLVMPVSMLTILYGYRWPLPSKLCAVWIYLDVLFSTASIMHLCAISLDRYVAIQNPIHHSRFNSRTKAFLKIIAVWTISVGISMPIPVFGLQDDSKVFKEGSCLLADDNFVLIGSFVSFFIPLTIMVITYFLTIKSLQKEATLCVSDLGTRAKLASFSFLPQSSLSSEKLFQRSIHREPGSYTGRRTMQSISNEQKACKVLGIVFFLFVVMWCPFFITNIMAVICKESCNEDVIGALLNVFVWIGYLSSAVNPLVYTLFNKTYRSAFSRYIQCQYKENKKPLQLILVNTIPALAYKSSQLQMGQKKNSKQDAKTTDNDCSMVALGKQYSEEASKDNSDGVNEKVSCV
- PROTOCOL_DESCRIPTION: Competitive binding assay, [3H]LSD, WT 5HT2A
PARAMETER: IC50

# STRUCTURE_SMILES_STRING, IC50
rows = [
    ("Cn1cc(Br)c(-c2cccc(NC(=O)OC(C)(C)C)c2)n1", "14 nM"),
]

// query Identify measured IC50 corresponding to "COc1ccc(OC(=O)Nc2cccc(-c3nn(C)cc3Br)c2)cc1"
// result < 1 nM
